Field: IC50. Provide a value for each of the molecules that follow.
Target: FAAH (Homo sapiens)
Sequence (O00519 1-579): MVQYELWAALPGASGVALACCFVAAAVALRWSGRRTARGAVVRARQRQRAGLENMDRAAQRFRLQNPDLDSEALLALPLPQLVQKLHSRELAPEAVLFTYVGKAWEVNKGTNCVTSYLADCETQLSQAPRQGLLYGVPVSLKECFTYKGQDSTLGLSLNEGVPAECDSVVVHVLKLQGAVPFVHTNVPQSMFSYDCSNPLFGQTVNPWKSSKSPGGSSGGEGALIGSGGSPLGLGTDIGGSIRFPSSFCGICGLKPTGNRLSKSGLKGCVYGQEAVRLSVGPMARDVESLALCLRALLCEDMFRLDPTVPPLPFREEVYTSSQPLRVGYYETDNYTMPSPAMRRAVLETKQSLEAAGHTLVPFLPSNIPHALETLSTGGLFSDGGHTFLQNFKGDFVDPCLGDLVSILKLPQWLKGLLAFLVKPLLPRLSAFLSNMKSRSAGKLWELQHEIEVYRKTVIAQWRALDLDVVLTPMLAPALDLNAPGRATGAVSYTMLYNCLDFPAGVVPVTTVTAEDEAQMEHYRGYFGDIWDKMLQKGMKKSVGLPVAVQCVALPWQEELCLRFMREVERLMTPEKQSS
Experiment: Assay Method 1: FAAH assay, 3H-anandamide hydrolysis in cell homogenate
Conditions: T84 or transfected SK-N-MC cell homogenate, 80 nM 3H-AEA, 1 h rt, > = solubility limit or highest concentration tested
Give bare numbers, in nM.

These recorded examples may help you get a feel for the data.
State recorded IC50 with FAAH (Homo sapiens), entry `O=C(c1ncco1)C1CCN(Cc2ccc(Br)cc2)CC1` , no comment. 12

State recorded IC50 with FAAH (Homo sapiens), entry `COc1ccc2cc(CN3CCC(C(=O)c4ncco4)CC3)c(Cl)nc2c1` , no comment. 294

State recorded IC50 with FAAH (Homo sapiens), entry `O=C(c1ncco1)C1CCN(Cc2ccc3ccc(Cl)cc3n2)CC1` , no comment. 3

Answer for every listed entry: what is its IC50? The entries follow.
1. CS(=O)(=O)c1cc(Br)ccc1CN1CCC(C(=O)c2ncco2)CC1
2. O=C(c1ncco1)C1CCN(C(=O)c2cccc(Cl)c2)CC1
3. CC(C)COc1cccc(CN2CCC(C(=O)c3ncco3)CC2)c1
4. COc1ccc(CN2CCC(C(=O)c3ncco3)CC2)cc1OC

13
9000
31
3000

Answer for every listed entry: what is its IC50? The entries follow.
1. O=C(c1ncco1)C1CCN(Cc2ccccn2)CC1
2. O=C(c1ncco1)C1CCN(Cc2ccc(Br)c([N+](=O)[O-])c2)CC1

[1300, 3]

====

Target: FAAH (Homo sapiens)
Sequence (O00519 1-579): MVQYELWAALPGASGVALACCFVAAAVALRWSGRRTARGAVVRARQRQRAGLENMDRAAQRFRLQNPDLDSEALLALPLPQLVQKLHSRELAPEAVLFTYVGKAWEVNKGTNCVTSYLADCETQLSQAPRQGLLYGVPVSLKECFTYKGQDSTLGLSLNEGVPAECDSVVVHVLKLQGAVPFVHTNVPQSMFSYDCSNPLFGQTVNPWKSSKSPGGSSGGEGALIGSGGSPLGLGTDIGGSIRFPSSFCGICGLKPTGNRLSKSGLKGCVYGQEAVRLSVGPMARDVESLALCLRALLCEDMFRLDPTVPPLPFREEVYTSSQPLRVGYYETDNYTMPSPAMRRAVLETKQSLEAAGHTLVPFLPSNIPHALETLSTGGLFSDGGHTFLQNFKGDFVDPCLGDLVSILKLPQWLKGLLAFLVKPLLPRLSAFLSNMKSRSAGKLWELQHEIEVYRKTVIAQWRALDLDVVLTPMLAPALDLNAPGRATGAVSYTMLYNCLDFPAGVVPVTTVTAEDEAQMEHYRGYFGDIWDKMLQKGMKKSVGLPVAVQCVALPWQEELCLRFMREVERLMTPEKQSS
Assay: Assay Method 1: FAAH assay, 3H-anandamide hydrolysis in cell homogenate
Details: T84 or transfected SK-N-MC cell homogenate, 80 nM 3H-AEA, 1 h rt, > = solubility limit or highest concentration tested
parameter-measured: pIC50
Answers are plain numbers, as −log10 of the molar value.

These recorded examples may help you get a feel for the data.
State recorded pIC50 with FAAH (Homo sapiens), entry O=C(c1ncco1)C1CCN(Cc2ccc(OC3CCCCC3)cc2)CC1 [Example 21] , no comment. 6.12

State recorded pIC50 with FAAH (Homo sapiens), entry Cn1ccc2cc(CN3CCC(C(=O)c4ncco4)CC3)ccc21 [Example 39] , no comment. 7.10

State recorded pIC50 with FAAH (Homo sapiens), entry O=C(c1ncco1)C1CCN(S(=O)(=O)c2ccc3ccccc3c2)CC1 [Example 1] , no comment. 7.00

State recorded pIC50 with FAAH (Homo sapiens), entry O=C(c1ncco1)C1CCN(Cc2ccc3c(c2)OCO3)CC1 [Example 15] , no comment. 6.95

State recorded pIC50 with FAAH (Homo sapiens), entry CCOc1ccc(CN2CCC(C(=O)c3ncco3)CC2)cc1 [Example 28] , no comment. 6.11

With those in mind, consider the next molecule.
State recorded pIC50 with FAAH (Homo sapiens), entry O=C(c1ncco1)C1CCN(Cc2cccc(F)c2)CC1 [Example 31] , no comment. 6.52

====

Biological target: FAAH (Homo sapiens, UniProt O00519)
Assay: Assay Method 1: FAAH assay, 3H-anandamide hydrolysis in cell homogenate
Conditions: T84 or transfected SK-N-MC cell homogenate, 80 nM 3H-AEA, 1 h rt, > = solubility limit or highest concentration tested
Field: IC50. Provide a value for each of the compounds that follow.
Give bare numbers, in nM.

These recorded examples may help you get a feel for the data.
Specify reported IC50 for the compound shown: `O=C(c1ncco1)C1CCN(Cc2ccc3ccccc3c2O)CC1` 4

Specify reported IC50 for the compound shown: `Cc1ccc(CN2CCC(C(=O)c3ncco3)CC2)cc1` 112

Specify reported IC50 for the compound shown: `O=C(c1ncco1)C1CCN(Cc2cccc(OC3CCCCC3)c2)CC1` 12

Specify reported IC50 for the compound shown: `O=C(c1ncco1)C1CCN(S(=O)(=O)c2cccc(Cl)c2)CC1` 8000

Answer for every listed entry: what is its IC50? The entries follow.
1. CN(C)c1nc2ccccc2cc1CN1CCC(C(=O)c2ncco2)CC1
2. O=C(c1ncco1)C1CCN(Cc2ccc3ccccc3c2)CC1
3. CC(C)Oc1ccc(CN2CCC(C(=O)c3ncco3)CC2)cc1
4. O=C(c1ncco1)C1CCN(S(=O)(=O)c2ccccc2Cl)CC1
5. CCOc1cccc(CN2CCC(C(=O)c3ncco3)CC2)c1
6. Cc1ccc2cc(CN3CCC(C(=O)c4ncco4)CC3)c(Cl)nc2c1

1: 46; 2: 4; 3: 5000; 4: 5000; 5: 170; 6: 585

Answer for every listed entry: what is its IC50? The entries follow.
1. O=C(c1ncco1)C1CCN(Cc2cc3ccccc3o2)CC1
2. O=C(c1ncco1)C1CCN(Cc2cccc3ccccc23)CC1
3. O=C(c1ncco1)C1CCN(Cc2ccc(C(F)(F)F)cc2)CC1
4. O=C(c1ncco1)C1CCN(Cc2ccccc2Br)CC1
5. O=C(c1ncco1)C1CCN(Cc2ccccc2Cl)CC1
6. Cn1ccc2ccc(CN3CCC(C(=O)c4ncco4)CC3)cc21

12
101
10
85
156
94

Answer for every listed entry: what is its IC50? The entries follow.
1. CC(C)Oc1cccc(CN2CCC(C(=O)c3ncco3)CC2)c1
2. O=C(c1ncco1)C1CCN(Cc2ccc(Br)c(Br)c2)CC1

1: 118; 2: 2

Answer for every listed entry: what is its IC50? The entries follow.
1. CN(C)c1ccc(CN2CCC(C(=O)c3ncco3)CC2)cc1
2. COc1ccc(C(=O)N2CCC(C(=O)c3ncco3)CC2)cc1
3. Cc1cccc(CN2CCC(C(=O)c3ncco3)CC2)c1

1: 200; 2: 7000; 3: 250

====

Biological target: Rat FAAH (Rattus norvegicus, UniProt P97612)
Sequence (P97612 whole entry): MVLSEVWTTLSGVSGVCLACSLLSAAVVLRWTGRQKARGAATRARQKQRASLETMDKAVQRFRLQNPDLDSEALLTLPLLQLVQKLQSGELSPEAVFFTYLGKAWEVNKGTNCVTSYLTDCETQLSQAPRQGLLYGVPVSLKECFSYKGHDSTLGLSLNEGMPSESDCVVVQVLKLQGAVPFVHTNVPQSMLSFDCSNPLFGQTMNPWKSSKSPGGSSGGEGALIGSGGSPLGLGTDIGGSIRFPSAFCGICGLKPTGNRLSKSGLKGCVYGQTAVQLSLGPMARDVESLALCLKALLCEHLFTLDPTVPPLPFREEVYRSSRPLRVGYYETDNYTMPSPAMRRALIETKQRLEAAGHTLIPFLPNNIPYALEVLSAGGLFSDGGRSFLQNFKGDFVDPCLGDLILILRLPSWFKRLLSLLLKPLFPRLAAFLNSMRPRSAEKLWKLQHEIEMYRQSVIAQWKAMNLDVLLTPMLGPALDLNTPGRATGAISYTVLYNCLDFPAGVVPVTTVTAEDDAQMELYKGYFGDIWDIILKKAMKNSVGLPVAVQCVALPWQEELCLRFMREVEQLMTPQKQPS
Assay: Assay Method 2: FAAH assay, 3H-anandamide hydrolysis in cell homogenate
Details: transfected SK-N-MC cell homogenate, 80 nM 3H-AEA, 1 h rt, > = solubility limit or highest concentration tested
parameter-measured: IC50 (nM)
Numbers only, in nM.

Answer for every listed entry: what is its IC50? The entries follow.
1. O=C(c1ncco1)C1CCN(Cc2ccc3c(c2)OCO3)CC1
2. Cc1ccc(CN2CCC(C(=O)c3ncco3)CC2)cc1
3. O=C(c1ncco1)C1CCN(Cc2cnc3ccccc3c2)CC1
4. O=C(c1ncco1)C1CCN(Cc2ccc(Br)cc2)CC1
5. O=C(c1ncco1)C1CCN(Cc2ccc3ccccc3n2)CC1

1: 582; 2: 484; 3: 43; 4: 33; 5: 23

====

Target: Rat FAAH (Rattus norvegicus, UniProt P97612)
Construct: expressed in transfected cells
Assay: Assay Method 2: FAAH assay, 3H-anandamide hydrolysis in cell homogenate
Format: biochemical
Conditions: transfected SK-N-MC cell homogenate, 80 nM 3H-AEA, 1 h rt, > = solubility limit or highest concentration tested
Method: A. Transfection of Cells with Rat FAAH A 10-cm tissue culture dish with a confluent monolayer of SK-N-MC cells was split 2 days (d) prior to transfection. Using sterile technique, the media was removed and the cells were detached from the dish by the addition of trypsin. One fifth of the cells were then placed onto a new 10-cm dish. […] After 10 d, dishes were analyzed for surviving colonies of cells. […]
parameter-measured: IC50

State recorded IC50 with Rat FAAH (Rattus norvegicus, UniProt P97612), entry COc1ccc(C(=O)N2CCC(C(=O)c3ncco3)CC2)cc1 [Example 9] , no comment. > 10 µM

State recorded IC50 with Rat FAAH (Rattus norvegicus, UniProt P97612), entry O=C(c1ncco1)C1CCN(Cc2ccccn2)CC1 [Example 60] , no comment. > 10 µM

With those in mind, consider the next molecule.
State recorded IC50 with Rat FAAH (Rattus norvegicus, UniProt P97612), entry O=C(c1ncco1)C1CCN(C(=O)c2ccccc2Cl)CC1 [Example 13] , no comment. > 10 µM
